ASSAYED_SYSTEM: purified interference factor(s) from serum of Donor A
PROTOCOL: SPR, interference factor on CM5 chip
METRIC_NAME: binding as % of Reference Sequence (=100%)
Value expressed in %; do not type the unit.

Nanobody or Nanobody construct of SEQ ID NO: 66 (VHH) VHH: EVQLVESGGGSVQPGGSLRLSCAASRSIGRLDRMGWYRHRPGEPRELVATITGGSSINYGDSVKGRFTISIDNSKNTVYLQMNSLRPEDTAVYYCNFNKYVTSRDTWGQGTLVTVSS = 81

Attention now shifts to the item below.
Lookup result for Nanobody or Nanobody construct of SEQ ID NO: 67 (VHH) VHH: EVQLVESGGGLVQPGGSLRLSCAASRSIGRLDRMGWYRHRPGEPRELVATITGGSSINYGDSVKGRFTISIDNSKNTVYLQMNSLKPEDTAVYYCNFNKYVTSRDTWGQGTLVTVSS ; measured binding as % of Reference Sequence (=100%): 102

Cited source for all entries: patent EP4350345A2
